Data provenance is patent US7226923B2.

Tested on: HCT 116 cells
Assay: CellTiter-Glo assay in HCT 116 cells
Assay type: cell-based, human
Settings: Homo sapiens, HCT-116, 120 h, 5 days incubation, 30 μM to 0.0015 μM
propertyName: IC50

{"columns": ["molecule", "IC50"],
 "data": [
  ["Cc1cc(Nc2nn(Cc3ccc(N)cc3)c(=O)c3ccccc23)n[nH]1", "0.1 to 10 µM"],
  ["Cc1cc(Nc2nn(C(C)C)c(=O)c3cc(F)ccc23)n[nH]1", "0.1 to 10 µM"]
]}

# evaluate next
Cc1cc(Nc2nn(CC(O)c3ccccc3)c(=O)c3ccccc23)n[nH]1 (stereo not drawn) has a reported IC50 of 10 to 100 µM

----------
Test system: HCT 116 cells
Test: CellTiter-Glo assay in HCT 116 cells
Type: cell-based, human
Conditions: Homo sapiens, HCT-116, 120 h, 5 days incubation, 30 μM to 0.0015 μM
Measured IC50 of individual entries

{"columns": ["smilesStructure", "tgt", "IC50"],
 "data": [
  ["Cc1cc(Nc2nn(Cc3ccccn3)c(=O)c3ccccc23)[nH]n1", "HCT 116 cells", "0.1 to 10 µM"],
  ["CC(=O)Nc1ccc(Cn2nc(Nc3cc(C)[nH]n3)c3ccccc3c2=O)cc1", "HCT 116 cells", "4.19 µM"],
  ["Cc1cc(Nc2nn(-c3ccc(C(C)(C)C)cc3)c(=O)c3cc(N)ccc23)[nH]n1", "HCT 116 cells", "0.1 to 10 µM"],
  ["Cc1cc(Nc2nn(CC(=O)c3ccc4c(c3)OCO4)c(=O)c3ccccc23)n[nH]1", "HCT 116 cells", "0.1 to 10 µM"],
  ["Cc1cc(Nc2nn(C(C)C)c(=O)c3ccc(N4CCOCC4)cc23)n[nH]1", "HCT 116 cells", "0.1 to 10 µM"],
  ["Cc1cc(Nc2nn(-c3ccc(-c4ccccc4)cc3)c(=O)c3ccccc23)n[nH]1", "HCT 116 cells", "10 to 100 µM"]
]}

Reported IC50 (HCT 116 cells) for entry CSc1ccc(Cn2nc(Nc3cc(C)[nH]n3)c3ccccc3c2=O)cc1 is 0.1 to 10 µM

Summary line: Cc1cc(Nc2nn(C(C)C)c(=O)c3cc(N(C)Cc4cccnc4)ccc23)n[nH]1 , HCT 116 cells, reported IC50 = 0.1 to 10 µM

----------
Each item that follows carries a reported IC50.
Target protein (sequence): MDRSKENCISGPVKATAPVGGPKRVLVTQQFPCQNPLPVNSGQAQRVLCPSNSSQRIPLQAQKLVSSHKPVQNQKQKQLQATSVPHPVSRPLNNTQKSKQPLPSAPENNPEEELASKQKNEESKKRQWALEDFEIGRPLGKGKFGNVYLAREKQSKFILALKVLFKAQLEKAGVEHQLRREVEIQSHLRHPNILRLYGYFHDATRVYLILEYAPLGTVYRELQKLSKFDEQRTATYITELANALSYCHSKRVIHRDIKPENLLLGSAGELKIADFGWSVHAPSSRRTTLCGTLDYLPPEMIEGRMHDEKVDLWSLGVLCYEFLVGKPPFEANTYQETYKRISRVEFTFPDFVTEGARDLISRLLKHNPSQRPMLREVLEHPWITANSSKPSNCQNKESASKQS

// worked examples, IC50 included
{"columns": ["compound", "IC50"],
 "data": [
  ["CC(=O)Nc1ccc(Cn2nc(Nc3cc[nH]n3)c3ccccc3c2=O)cc1", "0.555 µM"],
  ["COCc1ccc2c(Nc3cc(C)[nH]n3)nn(C(C)C)c(=O)c2c1", "0.001 to 0.1 µM"],
  ["CSc1ccc2c(Nc3cc(C)[nH]n3)nn(C(C)C)c(=O)c2c1", "0.001 to 0.1 µM"],
  ["CCN(CC)C(=O)c1ccc2c(Nc3cc(C)[nH]n3)nn(C(C)C)c(=O)c2c1", "0.001 to 0.1 µM"],
  ["Cc1cc(Nc2nn(-c3ccc(OC(F)(F)F)cc3)c(=O)c3ccccc23)n[nH]1", "0.001 to 0.1 µM"]
]}

According to the records, this compound Cc1cc(Nc2nn(-c3ccc(S(=O)(=O)C(C)(C)C)cc3)c(=O)c3ccccc23)n[nH]1 displays IC50 of 0.001 to 0.1 µM

Entry COc1ccc(-n2nc(Nc3cc(C)[nH]n3)c3ccccc3c2=O)cc1 ; IC50 = 0.001 to 0.1 µM

Record CC(C)n1nc(Nc2cc(C3CC3)n[nH]2)c2ccc(N(C)C)cc2c1=O , field IC50: 0.001 to 0.1 µM

compound Cc1cc(Nc2nn(-c3ccc(C(C)(C)C)cc3)c(=O)c3cc(NC=O)ccc23)[nH]n1 , IC50 observed: 0.001 to 0.1 µM

The value of IC50 measured for the compound Cc1cc(Nc2nn(C(C)C)c(=O)c3ccc(CO)cc23)n[nH]1 turned out to be 0.1 to 1 µM

Looking up Cc1cc(Nc2nn(C(C)C)c(=O)c3cc(N(C)CCN4CCOCC4)ccc23)n[nH]1 , I found its IC50 recorded as 0.001 to 0.1 µM

For reference, reported IC50 for Cc1cc(Nc2nn(C(C)C)c(=O)c3cc(CO)ccc23)n[nH]1 stands at 0.001 to 0.1 µM

Sample Cc1cc(Nc2nn(-c3ccc(C(C)(C)C)cc3)c(=O)c3cc([N+](=O)[O-])ccc23)[nH]n1 ; IC50 observed: 0.001 to 0.1 µM

IC50 in this record for Cc1cc(Nc2nn(Cc3ccc(F)cc3)c(=O)c3ccccc23)n[nH]1 : 0.001 to 0.1 µM

Sample Cc1cc(Nc2nn(C(C)C)c(=O)c3cc(N(C)C(=O)NC(C)C)ccc23)n[nH]1 ; IC50 observed: 0.001 to 0.1 µM

Lab book: IC50 of Cc1cc(Nc2nn(C(C)C)c(=O)c3cc(S(C)(=O)=O)ccc23)n[nH]1 noted as 0.001 to 0.1 µM

Documented IC50 of CONC(=O)c1ccc2c(Nc3cc(C)[nH]n3)nn(C(C)C)c(=O)c2c1 : 0.001 to 0.1 µM

Cc1cc(Nc2nn(-c3ccc4ccccc4c3)c(=O)c3ccccc23)n[nH]1 yielded IC50 of 0.001 to 0.1 µM

Summary for this compound, COc1ccc2c(=O)n(C(C)C)nc(Nc3cc(C)[nH]n3)c2c1 : IC50 is 0.001 to 0.1 µM

Given item CC(=O)Nc1ccc(-n2nc(Nc3cc(C)[nH]n3)c3ccccc3c2=O)cc1 , the value recorded as its IC50 is 0.1 to 1 µM

Looking up COC(=O)c1ccc2c(Nc3cc(C)[nH]n3)nn(C(C)C)c(=O)c2c1 , I found its IC50 recorded as 0.001 to 0.1 µM

Looking up COCC(C)n1nc(Nc2cc(C)n[nH]2)c2ccccc2c1=O (stereo not shown) , I see its IC50 listed as 0.1 to 1 µM

Field IC50 (entry Cc1cc(Nc2nn(C(C)C)c(=O)c3cc(N4CCN(C)CC4)ccc23)[nH]n1 ) reads 0.001 to 0.1 µM

Field IC50 (entry Cc1cc(Nc2nn(C)c(=O)c3ccccc23)n[nH]1 ) reads 0.1 to 1 µM

For Cc1ccc(-n2nc(Nc3cc[nH]n3)c3ccccc3c2=O)cc1 the compound record lists IC50 as 0.1 to 1 µM

Kindly note the recorded IC50 for Cc1cc(Nc2nn(-c3ccc(NS(C)(=O)=O)cc3)c(=O)c3ccccc23)n[nH]1 , which is 0.001 to 0.1 µM

Query CC(=O)Nc1ccc(Cn2nc(Nc3cc(C)[nH]n3)c3ccccc3c2=O)cc1 yields IC50 of 0.001 to 0.1 µM

----------
Readings of pIC50 for the listed compounds
Target protein (sequence): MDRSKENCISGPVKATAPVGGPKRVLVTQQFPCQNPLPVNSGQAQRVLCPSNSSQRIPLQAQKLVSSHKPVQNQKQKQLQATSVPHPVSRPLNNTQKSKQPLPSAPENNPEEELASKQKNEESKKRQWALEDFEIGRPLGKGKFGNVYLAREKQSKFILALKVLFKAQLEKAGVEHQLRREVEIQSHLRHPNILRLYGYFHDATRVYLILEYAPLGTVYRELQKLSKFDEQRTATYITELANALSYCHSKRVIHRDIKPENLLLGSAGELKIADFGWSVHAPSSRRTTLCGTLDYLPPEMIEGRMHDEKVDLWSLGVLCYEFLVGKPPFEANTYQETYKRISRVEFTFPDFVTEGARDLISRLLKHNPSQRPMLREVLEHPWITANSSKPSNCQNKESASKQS
pIC50: −log10 of the molar value.

{"columns": ["smilesStructure", "val"],
 "data": [
  ["Cc1cc(Nc2nn(-c3ccc(N4CCCCC4)cc3)c(=O)c3ccccc23)[nH]n1", "7.00 to 9.00"]
]}

Cc1cc(Nc2nn(-c3ccccc3)c(=O)c3ccc(N)cc23)n[nH]1 has a reported pIC50 of 6.00 to 7.00

Recorded pIC50 (compound Cc1cc(Nc2nn(-c3ccc(C(C)(C)C)cc3)c(=O)c3ccccc23)n[nH]1 ): 6.00 to 7.00

The compound Cc1cc(Nc2nn(-c3ccc(C(F)(F)F)cc3)c(=O)c3ccccc23)n[nH]1 showed pIC50 equal to 7.00 to 9.00

The measured pIC50 associated with Cc1cc(Nc2nn(C(C)C)c(=O)c3cc(NCCN4CCOCC4)ccc23)n[nH]1 reads 7.00 to 9.00

Entry under test: COc1cccc(C(=O)Cn2nc(Nc3cc(C)[nH]n3)c3ccccc3c2=O)c1 . Its pIC50 was 7.00 to 9.00

// recorded pIC50 for Cc1cc(Nc2nn(-c3ccc([N+](=O)[O-])cc3)c(=O)c3ccccc23)n[nH]1 : 7.00 to 9.00

Reported pIC50 for Cc1cc(Nc2nn(CC(=O)c3ccc(OC(F)(F)F)cc3)c(=O)c3ccccc23)n[nH]1 was 6.00 to 7.00
